Reference source for all entries: patent US20240317708A1

assay: Caco-2 permeability assay (CacoReady kit); format: in vitro ADME; conditions: human
Listed here are molecules together with their documented Papp.
experimental.readout: Papp

molecule	val
COC(=O)/C=C/CC[C@H](NC(=O)c1oc2ccccc2c1C)C(=O)Nc1cccn(CC(=O)NC23CC4CC(CC(O)(C4)C2)C3)c1=O	< 1 ×10⁻⁶ cm/s
COC(=O)/C=C/CC[C@H](NC(=O)c1coc2ccccc12)C(=O)Nc1cccn(CC(=O)NC2C3CC4CC(C3)CC2C4)c1=O (stereo partly shown)	1 to 10 ×10⁻⁶ cm/s
CCCCCNC(=O)/C=C/CC[C@H](NC(=O)c1cn2ccsc2n1)C(=O)Nc1cccn(CC(=O)NC23CC(C2)C3)c1=O	1 to 10 ×10⁻⁶ cm/s
COC(=O)/C=C/CC[C@H](NC(=O)c1csc(Br)c1)C(=O)Nc1cccn(CC(=O)NC2C3CC4CC(C3)CC2C4)c1=O (stereo partly shown)	< 1 ×10⁻⁶ cm/s
COC(=O)/C=C/CC[C@H](NC(=O)c1cncc(C(=O)OC)c1)C(=O)Nc1cccn(CC(=O)NC2C3CC4CC(C3)CC2C4)c1=O (stereo partly shown)	< 1 ×10⁻⁶ cm/s
CCC12CC3CC(C1)CC(NC(=O)Cn1cccc(NC(=O)[C@H](CC/C=C/C(=O)OC)NC(=O)c4oc5ccccc5c4C)c1=O)(C3)C2	1 to 10 ×10⁻⁶ cm/s
O=C(/C=C/CC[C@H](NC(=O)c1ccc2c(c1)NCCC2)C(=O)Nc1cccn(CC(=O)NC23CC(C2)C3)c1=O)NC1CCCCC1	< 1 ×10⁻⁶ cm/s
COC(=O)/C=C/CC[C@H](NC(=O)[C@H]1COCCN1)C(=O)Nc1cccn(CC(=O)NC2C3CC4CC(C3)CC2C4)c1=O (stereo partly shown)	< 1 ×10⁻⁶ cm/s
COC(=O)/C=C/CC[C@H](NC(=O)c1oc2ccccc2c1C)C(=O)Nc1cccn(CC(=O)NC2C3CC4CC2CC(C)(C4)C3)c1=O (stereo partly shown)	1 to 10 ×10⁻⁶ cm/s
CC(C)NC(=O)/C=C/CC[C@H](NC(=O)c1c[nH]c2ccccc12)C(=O)Nc1cccn(CC(=O)NC23CC(C2)C3)c1=O	1 to 10 ×10⁻⁶ cm/s
COC(=O)/C=C/CC[C@H](NC(=O)c1cc(Cl)sc1Cl)C(=O)Nc1cccn(CC(=O)NC23CC4(C)CC(C)(CC(C)(C4)C2)C3)c1=O	1 to 10 ×10⁻⁶ cm/s
COC(=O)/C=C/CC[C@H](NC(=O)c1snnc1C)C(=O)Nc1cccn(CC(=O)N[C@@H]2C[C@@H]3CC[C@H]2C3)c1=O	< 1 ×10⁻⁶ cm/s
COC(=O)/C=C/CC[C@H](NC(=O)c1oc2ccccc2c1C)C(=O)Nc1cccn(CC(=O)NCC23CC4CC(CC(C4)C2)C3)c1=O	1 to 10 ×10⁻⁶ cm/s
COC(=O)/C=C/CC[C@H](NC(=O)c1oc2ccccc2c1C)C(=O)Nc1cccn(CC(=O)NC2C3CC4CC2CC(F)(C4)C3)c1=O (stereo partly shown)	1 to 10 ×10⁻⁶ cm/s
COC(=O)/C=C/CC[C@H](NC(=O)c1[nH]c2ccccc2c1C)C(=O)Nc1cccn(CC(=O)NC2C3CC4CC(C3)CC2C4)c1=O (stereo partly shown)	1 to 10 ×10⁻⁶ cm/s
COC(=O)/C=C/CC[C@H](NC(=O)c1cncc([N+](=O)[O-])c1)C(=O)Nc1cccn(CC(=O)NC2C3CC4CC(C3)CC2C4)c1=O (stereo partly shown)	< 1 ×10⁻⁶ cm/s
COC(=O)/C=C/CC[C@H](NC(=O)c1oc2ccccc2c1C)C(=O)Nc1cccn(CC(=O)N[C@H]2C[C@H]3CC[C@]2(C)C3(C)C)c1=O	1 to 10 ×10⁻⁶ cm/s
COC(=O)/C=C/CC[C@H](NC(=O)c1nn[nH]n1)C(=O)Nc1cccn(CC(=O)NC2C3CC4CC(C3)CC2C4)c1=O (stereo partly shown)	1 to 10 ×10⁻⁶ cm/s
O=C(/C=C/CC[C@H](NC(=O)c1cc2ccccc2nn1)C(=O)Nc1cccn(CC(=O)NC23CC(C2)C3)c1=O)NC1CC1	< 1 ×10⁻⁶ cm/s
COC(=O)/C=C/CC[C@H](NC(=O)c1cc2c(F)c(F)ccc2[nH]1)C(=O)Nc1cccn(CC(=O)NC2C3CC4CC(C3)CC2C4)c1=O (stereo partly shown)	< 1 ×10⁻⁶ cm/s
COC(=O)/C=C/CC[C@H](NC(=O)c1oc2ccccc2c1C)C(=O)Nc1cccn(CC(=O)NC2C3CC4CC2CC(Cl)(C4)C3)c1=O (stereo partly shown)	1 to 10 ×10⁻⁶ cm/s
CCN(CC)C(=O)/C=C/CC[C@H](NC(=O)c1coc(C(C)=O)n1)C(=O)Nc1cccn(CC(=O)NC23CC(C2)C3)c1=O	< 1 ×10⁻⁶ cm/s
COC(=O)/C=C/CC[C@H](NC(=O)c1cc(Cl)sc1Cl)C(=O)Nc1cccn(CC(=O)NC23CC4CC(C)(CC(C)(C4)C2)C3)c1=O	1 to 10 ×10⁻⁶ cm/s
COC(=O)/C=C/CC[C@H](NC(=O)C1CN2CCC1CC2)C(=O)Nc1cccn(CC(=O)NC2C3CC4CC(C3)CC2C4)c1=O (stereo partly shown)	< 1 ×10⁻⁶ cm/s
COC(=O)/C=C/CC[C@H](NC(=O)c1ccnn1C)C(=O)Nc1cccn(CC(=O)NC23CC4(C)CC(C)(CC(C)(C4)C2)C3)c1=O	< 1 ×10⁻⁶ cm/s
